MEASURED_ON: T1, Biotin Y46,48,51(SO3) PSGL-1(42-62) peptide (human, sulfotyrosine at Y46, Y48 and Y51; C-terminal Lys-biotin)
T1 construct: also called fully sulfated N-terminal PSGL-1 peptide
T1 peptide: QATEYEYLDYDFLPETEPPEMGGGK
PROTOCOL_NOTES: ELISA, immobilized biotin peptide
MEASURED_ATTRIBUTE: log10 of EC50 (log10 of the value in nM)
In our notation, the value equals log10 of EC50 in nM.

As a guide, the following entries are already answered.
# BINDER, MEASURED_ATTRIBUTE, MEAS_VALUE
data = [
    ("02G01 (antibody, IgG4, V domains shown) VH: EVQLVQSGAEVKKPGASVKVSCKASGYTFTSYGISWVRQAPGQGLEWMGWISAYNGNTNYAQKLQGRVTMTTDTSTSTAYMELRSLRSDDTAVYYCARVTRLPGGGYAFDIWGQGTMVTVSL VL: QSVLTQPPSASGTPGQRITISCSGSTSNIGNKHVYWYQQFPGAAPKLLIHNTNKRPSGVPDRFSGSKSGTSASLAISGLQSDDEADYYCAAWDGSLSAWVFGGGTKLTVL", "log10 of EC50", -1.52),
    ("07E07 (antibody, IgG4, V domains shown) VH: QVQLQQSGAEVKKPGASVKVSCKASGYTFTSYYMHWVRQAPGQGLEWMGIINTSSGSTKYAQRFQDRVTVTRDTSTTTVYMELNSLRSEDTAVYYCARGGRAYSGSFDNWGQGTLVTVSS VL: DVVMTQSPLSLPVTLGQPASISCRSSQSLVHRDGNTYFNWFQQRPGQSPRRLIYKVSNRDSGVPDRFSGSGSGTDFTLKISRVEAEDVGVYYCMQATHWPRTFGQGTKVEIK", "log10 of EC50", -0.82),
]

input: What log10 of EC50 value was documented for this binder, 03E05 (antibody, IgG4, V domains shown) VH: EVKLLESGGDLAQTGGSLRLSCVASGFTFSSYPMSWVRQAPGKGLEWVSAIRRSGATQYADSVKGRFTISRDNSKNTVYLQMNSLRVEDTAVYYCAKGTYDLGQGTLVTVSS VL: DIVMTQTPLSLPVTLGQPASISCRSSQSLVYSDGNTYLNWFHQRPGQSPRRLIYKVSNRDSGVPDRFSGSGSDTEFTLKISRVEAEDVGVYYCMQATHWPLTFGGGTKVEIK ?
output: -0.80

input: // query log10 of EC50 value for entry 18F02 (antibody, V domains shown, From mouse immunisation; only variable domains given) VH: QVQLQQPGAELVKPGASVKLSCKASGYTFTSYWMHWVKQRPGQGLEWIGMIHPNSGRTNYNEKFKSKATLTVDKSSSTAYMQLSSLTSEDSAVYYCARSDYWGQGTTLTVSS VL: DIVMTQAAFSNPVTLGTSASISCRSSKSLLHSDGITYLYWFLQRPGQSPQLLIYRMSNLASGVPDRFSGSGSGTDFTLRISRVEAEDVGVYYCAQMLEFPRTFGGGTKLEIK
output: -0.18

input: Would you mind telling me what log10 of EC50 value was observed for 20I15 (antibody, V domains shown, From mouse immunisation; only variable domains given; also called 20115) VH: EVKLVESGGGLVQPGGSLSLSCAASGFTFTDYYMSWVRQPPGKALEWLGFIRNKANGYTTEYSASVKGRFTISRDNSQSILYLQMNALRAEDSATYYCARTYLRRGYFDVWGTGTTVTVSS VL: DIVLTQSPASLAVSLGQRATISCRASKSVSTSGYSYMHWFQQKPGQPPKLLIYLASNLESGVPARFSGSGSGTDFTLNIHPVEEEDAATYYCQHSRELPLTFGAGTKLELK ?
output: -0.31
